FYI, the data here is from patent US10702568B2.

test: Log D of silymarin components (octanol/buffer, HPLC); type: physicochemical; details: octanol/universal buffer pH 7.4, 16 h shaking at room temperature; read-out: Log D (7.4 pH)
observed.property: logD at 16 h
// print number alone

Give logD at 16 h for O=C1c2c(O)cc(O)cc2O[C@H](c2ccc(O)c(O)c2)[C@H]1O
1.35

---

assay: Silymarin saturated solubility with CAPTISOL® (Example 1, HPLC); settings: 0.05 M CAPTISOL in water, 25 °C, aqueous with cosolvent or surfactant or cyclodextrin, thermodynamic from solid, Solubility (mg/ml) of flavonolignan components of silymarin, CAPTISOL® (0.05M) in water, saturated with excess silymarin
observed.property: solubility (µg/mL)
Respond with the bare value in µg/mL.

Return solubility for the following compound: COc1cc([C@H]2Oc3cc([C@H]4Oc5cc(O)cc(O)c5C(=O)[C@@H]4O)ccc3O[C@@H]2CO)ccc1O [Silybin A]
2230

State, in one line, measured solubility of COc1cc([C@@H]2Oc3c(O)cc([C@H]4Oc5cc(O)cc(O)c5C(=O)[C@@H]4O)cc3[C@H]2CO)ccc1O [Silychristin A]
9570

Give the reported value of solubility for this record: COc1cc([C@@H]2Oc3cc([C@H]4Oc5cc(O)cc(O)c5C(=O)[C@@H]4O)ccc3O[C@H]2CO)ccc1O [Silybin B]
5590

Tell me solubility reported for COc1cc([C@H]2Oc3c(O)cc([C@H]4Oc5cc(O)cc(O)c5C(=O)[C@@H]4O)cc3[C@@H]2CO)ccc1O [Silychristin B]
930

---

test: Silymarin saturated solubility with CAPTISOL® (Example 1, HPLC); conditions: 0.2 M CAPTISOL in water, 25 °C, aqueous with cosolvent or surfactant or cyclodextrin, thermodynamic from solid, Solubility (mg/ml) of flavonolignan components of silymarin, CAPTISOL® (0.2M) in water, saturated with excess silymarin
observed.property: solubility (mg/mL)
State just the number; it will be interpreted in mg/mL.

Tell me solubility reported for COc1cc([C@@H]2Oc3cc([C@H]4Oc5cc(O)cc(O)c5C(=O)[C@@H]4O)ccc3O[C@H]2CO)ccc1O
13.8

For the compound COc1cc([C@H]2Oc3cc([C@H]4Oc5cc(O)cc(O)c5C(=O)[C@@H]4O)ccc3O[C@@H]2CO)ccc1O , give its reported solubility.
6.37

Input COc1cc([C@@H]2Oc3c(O)cc([C@H]4Oc5cc(O)cc(O)c5C(=O)[C@@H]4O)cc3[C@H]2CO)ccc1O , output reported solubility.
25.5

Assign solubility to the following record: COc1cc([C@H]2Oc3c(O)cc([C@H]4Oc5cc(O)cc(O)c5C(=O)[C@@H]4O)cc3[C@@H]2CO)ccc1O
2.32

---

test: Silymarin saturated solubility with CAPTISOL® (Example 1, HPLC); conditions: CAPTISOL® (0.1M), saturated solubility
observed.property: Percentages of flavonolignan components of silymarin in the sample (%)
Express the result in % but write the number alone.

Look up and state reported Percentages of flavonolignan components of silymarin in the sample for COc1cc([C@H]2Oc3c(O)cc([C@H]4Oc5cc(O)cc(O)c5C(=O)[C@@H]4O)cc3[C@@H]2CO)ccc1O
2.99

Supply Percentages of flavonolignan components of silymarin in the sample value. Item: COc1cc([C@@H]2Oc3cc([C@H]4Oc5cc(O)cc(O)c5C(=O)[C@@H]4O)ccc3O[C@H]2CO)ccc1O
23.18

Write down Percentages of flavonolignan components of silymarin in the sample measured for item COc1cc([C@@H]2Oc3c(O)cc([C@H]4Oc5cc(O)cc(O)c5C(=O)[C@@H]4O)cc3[C@H]2CO)ccc1O
39.70

Let me know recorded Percentages of flavonolignan components of silymarin in the sample for COc1cc([C@H]2Oc3cc([C@H]4Oc5cc(O)cc(O)c5C(=O)[C@@H]4O)ccc3O[C@@H]2CO)ccc1O , thanks.
9.86
